Molecular target: equine FcRn (large alpha subunit p51) / equine beta-2-microglobulin complex, biotinylated (equine) (UniProt P30441)
Experiment: SPR (Biacore), pH 6
measurement.name: pKd
Give bare numbers, as −log10 of the molar value.

Requested read-out: pKd. Entry: equine IgG4 Y436L (antibody, part only; not given: variable domains, not shown: another chain or arm of the molecule) constant: ASTTAPKVFPLASHSAATSGSTVALGCLVSSYFPEPVTVSWNSGALTSGVHTFPSVLQSSGLYSLSSMVTVPASSLKSQTYICNVAHPASSTKVDKKIVIKECNGGCPAECLQVGPSVFIFPPKPKDVLMISRTPTVTCVVVDVGHDFPDVQFNWYVDGVETHTATTEPKQEQFNSTYRVVSVLPIQHKDWLSGKEFKCKVNNKALPAPVERTISKPTGQPREPQVYVLAPHRDELSKNKVSVTCLVKDFYPTDIDIEWKSNGQPEPETKYSTTPAQLDSDGSYFLYSKLTVETNRWQQGTTFTCAVMHEALHNHLTEKSVSKSPGK
7.80

Every entry's value here was drawn from patent US20260070987A1.
